Quick list: pIC50 per entry.
Tested on: 313798-341-R-J2-PDC spheroids, viability;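 note: spheroids exposed to compounds for seven days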
assay-protocol: Anticancer human tumor 313798-341-R-J2-PDC patient-derived cervical squamous cell carcinoma cell line growth inhibition [PI3K]
cond: curve of first compound; second compound 0.316 µM; spheroids with HUVEC and MSC
pIC50: −log10 of the molar value.

{"columns": ["compound", "target-or-test-system", "pIC50"],
 "data": [
  ["CC(=O)c1c(C)c2cnc(Nc3ccc(N4CCNCC4)cn3)nc2n(C2CCCC2)c1=O + CC(Nc1ccc2c(c1)OCCn1cc(N3C(=O)OCC3C(F)F)nc1-2)C(N)=O", "313798-341-R-J2-PDC spheroids, viability", "< 7.00"],
  ["CNC(=O)c1ccc(N2C(=S)N(c3ccc(C#N)c(C(F)(F)F)c3)C(=O)C2(C)C)cc1F + COc1c(OCCCN2CCOCC2)ccc2c3n(c(=NC(=O)c4cnc(N)nc4)nc12)CCN3", "313798-341-R-J2-PDC spheroids, viability", "> 7.50"],
  ["Cn1nccc1Nc1nccc(-c2ccn(C(CO)c3ccc(Cl)c(F)c3)c(=O)c2)n1 (stereo not given) + COc1c(OCCCN2CCOCC2)ccc2c3n(c(=NC(=O)c4cnc(N)nc4)nc12)CCN3", "313798-341-R-J2-PDC spheroids, viability", "> 7.50"],
  ["CC(Cn1ccc(-c2ccc(C#N)c(Cl)c2)n1)NC(=O)c1cc(C(C)O)[nH]n1 (stereo not given) + CC(Nc1ncnc2nc[nH]c12)c1cc2cccc(Cl)c2c(=O)n1-c1ccccc1", "313798-341-R-J2-PDC spheroids, viability", "< 5.00"],
  ["CC1(C)CCC(Nc2ncc(C(F)(F)F)c(-c3c[nH]c4c(P(C)(C)=O)c(C#N)ccc34)n2)CN1 (stereo not given) + Cc1nc(NC(=O)N2CCCC2C(N)=O)sc1-c1ccnc(C(C)(C)C(F)(F)F)c1", "313798-341-R-J2-PDC spheroids, viability", "> 7.50"]
]}
